Biological target: Neuronal acetylcholine receptor; alpha3/beta4 (Homo sapiens, UniProt P30926+P32297)
Sequence (P30926 whole entry): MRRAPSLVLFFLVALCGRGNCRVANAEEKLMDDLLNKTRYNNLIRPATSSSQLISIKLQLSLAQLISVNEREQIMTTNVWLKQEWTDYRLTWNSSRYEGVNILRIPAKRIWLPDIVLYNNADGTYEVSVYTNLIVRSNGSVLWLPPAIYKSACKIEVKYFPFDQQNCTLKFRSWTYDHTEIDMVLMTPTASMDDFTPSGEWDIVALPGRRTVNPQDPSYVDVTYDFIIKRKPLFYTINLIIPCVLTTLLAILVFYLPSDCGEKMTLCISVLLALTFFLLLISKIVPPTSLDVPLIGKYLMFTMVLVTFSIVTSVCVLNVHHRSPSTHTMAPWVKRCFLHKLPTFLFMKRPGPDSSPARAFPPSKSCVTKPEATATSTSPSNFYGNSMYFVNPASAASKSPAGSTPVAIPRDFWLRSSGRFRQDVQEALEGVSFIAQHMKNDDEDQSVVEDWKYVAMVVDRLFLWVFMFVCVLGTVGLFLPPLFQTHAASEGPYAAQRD
Sequence (P32297 whole entry): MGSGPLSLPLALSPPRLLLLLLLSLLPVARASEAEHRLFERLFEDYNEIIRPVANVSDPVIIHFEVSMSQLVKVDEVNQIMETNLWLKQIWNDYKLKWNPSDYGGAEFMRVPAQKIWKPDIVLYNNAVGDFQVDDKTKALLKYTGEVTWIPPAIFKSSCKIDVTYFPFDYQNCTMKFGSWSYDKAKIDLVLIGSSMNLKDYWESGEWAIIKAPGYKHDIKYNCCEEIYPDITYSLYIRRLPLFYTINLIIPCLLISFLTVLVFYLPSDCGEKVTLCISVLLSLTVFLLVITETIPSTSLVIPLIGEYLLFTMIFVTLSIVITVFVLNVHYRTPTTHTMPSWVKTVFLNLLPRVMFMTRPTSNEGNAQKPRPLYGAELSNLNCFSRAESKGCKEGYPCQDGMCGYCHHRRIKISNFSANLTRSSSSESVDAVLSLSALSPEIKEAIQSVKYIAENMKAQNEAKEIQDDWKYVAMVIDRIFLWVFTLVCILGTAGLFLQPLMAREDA
Test: Displacement of [3H]epibatidine from human alpha3beta4 nAChR expressed in human SH-SY5Y cells
Measured Property: pKi
Numbers only, as −log10 of the molar value.

C1=C(c2cccnc2)C[C@@H]2CNC[C@H]1C2    7.64
Fc1ccc(Oc2cncc(C3=CC4CNCC(C3)C4)c2)cc1 (stereo not drawn)    7.51
C1=C(c2ccc(-c3ccccc3)nc2)CC2CNCC1C2 (stereo not drawn)    6.29
C1=C(c2cncc(Oc3ccccc3)c2)CC2CNCC1C2 (stereo not drawn)    8.72
Clc1ccc(Oc2cncc(C3=CC4CNCC(C3)C4)c2)cc1 (stereo not drawn)    7.40

Hello, I would appreciate it if you could give pKi for each entry below.
1. CC(C)Oc1cncc(C2=CC3CC(C2)CN(C)C3)c1 (stereo not drawn)
2. COc1ccccc1Oc1cncc(C2=CC3CNCC(C2)C3)c1 (stereo not drawn)

[5.76, 7.25]

====

Biological target: Neuronal acetylcholine receptor subunit alpha-7 (Homo sapiens)
Sequence (P36544 whole entry): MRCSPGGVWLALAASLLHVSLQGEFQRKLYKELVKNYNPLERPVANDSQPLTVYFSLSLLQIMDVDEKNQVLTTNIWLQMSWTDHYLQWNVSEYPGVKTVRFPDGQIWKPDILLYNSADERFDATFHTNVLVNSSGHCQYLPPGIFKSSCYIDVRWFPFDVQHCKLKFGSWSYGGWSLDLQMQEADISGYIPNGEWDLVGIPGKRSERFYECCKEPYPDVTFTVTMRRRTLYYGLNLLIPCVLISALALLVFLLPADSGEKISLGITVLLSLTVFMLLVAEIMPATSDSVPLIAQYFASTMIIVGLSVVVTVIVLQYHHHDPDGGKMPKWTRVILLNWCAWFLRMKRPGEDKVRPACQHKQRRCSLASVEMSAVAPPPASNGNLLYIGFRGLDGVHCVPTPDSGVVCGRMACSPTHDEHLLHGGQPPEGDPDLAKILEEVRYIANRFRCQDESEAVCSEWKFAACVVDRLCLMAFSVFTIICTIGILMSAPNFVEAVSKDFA
Experiment: Displacement of [3H]epibatidine from human alpha7 nAChR expressed in human HEK/RIC3 cells
Measured Property: pKi
Give bare numbers, as −log10 of the molar value.

For orientation, consider the following solved cases.
COc1ccc(Oc2cncc(C3=CC4CNCC(C3)C4)c2)cc1 (stereo unspecified)    7.64
Clc1ccc(Oc2cncc(C3=CC4CNCC(C3)C4)c2)cc1 (stereo unspecified)    7.64
Fc1ccc(Oc2cncc(C3=CC4CNCC(C3)C4)c2)cc1 (stereo unspecified)    8.14
Fc1cncc(C2=C[C@H]3CNC[C@@H](C2)C3)c1    8.48

Here is the next item to consider.
Report its pKi with Neuronal acetylcholine receptor subunit alpha-7 (Homo sapiens) as the test system: Clc1cncc(C2=CC3CNCC(C2)C3)c1 (stereo unspecified) 7.82

====

Target: Neuronal acetylcholine receptor subunit alpha-7 (Rattus norvegicus)
Assay: Binding affinity to rat alpha7 nAChR
Measured Property: pKi
Answers are plain numbers, as −log10 of the molar value.

Respond only with pKi recorded for `O=c1cccc2n1C[C@@H]1CNC[C@H]2C1` 5.10

====

Give log10 EC50 for every item shown.
Biological target: Neuronal acetylcholine receptor; alpha4/beta2 (Homo sapiens, UniProt P17787+P43681)
Sequence (P17787 whole entry): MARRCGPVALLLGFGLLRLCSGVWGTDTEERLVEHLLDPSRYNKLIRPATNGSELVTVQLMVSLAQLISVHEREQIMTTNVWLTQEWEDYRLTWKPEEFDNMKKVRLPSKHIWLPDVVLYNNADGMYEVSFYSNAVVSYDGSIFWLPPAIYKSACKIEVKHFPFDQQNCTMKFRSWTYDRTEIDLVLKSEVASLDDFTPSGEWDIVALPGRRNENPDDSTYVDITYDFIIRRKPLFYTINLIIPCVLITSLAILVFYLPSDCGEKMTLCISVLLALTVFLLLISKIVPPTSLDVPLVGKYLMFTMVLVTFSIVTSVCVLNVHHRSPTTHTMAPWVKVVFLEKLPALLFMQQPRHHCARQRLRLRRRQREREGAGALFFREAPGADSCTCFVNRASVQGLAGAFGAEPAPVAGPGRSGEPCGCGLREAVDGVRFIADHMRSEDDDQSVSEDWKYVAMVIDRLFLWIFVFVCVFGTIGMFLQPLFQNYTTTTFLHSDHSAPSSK
Sequence (P43681 whole entry): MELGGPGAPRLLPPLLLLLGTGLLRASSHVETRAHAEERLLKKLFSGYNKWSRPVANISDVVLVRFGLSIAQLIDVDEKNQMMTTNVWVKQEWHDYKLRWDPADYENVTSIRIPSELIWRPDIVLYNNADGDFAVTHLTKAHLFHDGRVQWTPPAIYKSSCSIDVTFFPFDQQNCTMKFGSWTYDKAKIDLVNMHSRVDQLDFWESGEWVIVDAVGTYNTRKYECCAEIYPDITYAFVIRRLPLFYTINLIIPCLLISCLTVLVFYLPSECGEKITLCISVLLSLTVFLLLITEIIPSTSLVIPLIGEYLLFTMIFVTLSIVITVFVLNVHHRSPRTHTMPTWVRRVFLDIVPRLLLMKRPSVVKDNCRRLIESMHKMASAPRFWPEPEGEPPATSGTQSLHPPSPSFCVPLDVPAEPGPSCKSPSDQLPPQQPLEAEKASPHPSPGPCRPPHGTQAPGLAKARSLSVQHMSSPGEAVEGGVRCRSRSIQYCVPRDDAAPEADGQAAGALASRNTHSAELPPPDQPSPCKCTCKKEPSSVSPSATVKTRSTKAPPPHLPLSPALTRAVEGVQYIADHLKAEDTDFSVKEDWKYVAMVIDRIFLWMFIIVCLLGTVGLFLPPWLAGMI
Test: Agonist activity at human alpha4beta2 nAChR low sensitivity form expressed in human SH-EP1 cells assessed as increase in calcium flux by FLIPR
Assay type: functional, cell-based
Remember, log10 of EC50, in nM.

Check out these entries, answers already filled in.
C1=C(c2ccc(-c3ccccc3)nc2)CC2CNCC1C2 (stereo not drawn)    3.98
Fc1ccc(C2=CC3CNCC(C2)C3)cn1 (stereo not drawn)    1.93

Report log10 EC50 for every entry below.
1. C1=C(c2cncc(Oc3ccccc3)c2)CC2CNCC1C2 (stereo not drawn)
2. C1=C(c2cccnc2)C[C@H]2CNC[C@@H]1C2
3. COc1cncc(C2=CC3CNCC(C2)C3)c1 (stereo not drawn)
4. CC(C)Oc1cncc(C2=CC3CNCC(C2)C3)c1 (stereo not drawn)
5. N#Cc1cncc(C2=C[C@@H]3CNC[C@H](C2)C3)c1
6. CN1C[C@H]2C=C(c3cccnc3)C[C@H](C2)C1
7. Fc1cncc(C2=C[C@@H]3CNC[C@H](C2)C3)c1

[2.82, 1.08, 1.72, 2.75, 2.54, 3.88, 1.56]

For each entry beneath this line, provide reported log10 EC50.
1. C1=C(c2cccnc2)C[C@@H]2CNC[C@H]1C2
2. Fc1cncc(C2=C[C@H]3CNC[C@@H](C2)C3)c1
3. N#Cc1cncc(C2=C[C@H]3CNC[C@@H](C2)C3)c1

[1.54, 1.70, 3.62]

====

Molecular target: Neuronal acetylcholine receptor; alpha3/beta4 (Homo sapiens, UniProt P30926+P32297)
Test: Displacement of [3H]epibatidine from human alpha3beta4 nAChR expressed in human SH-SY5Y cells
Measured Property: Ki (nM)
Answers are plain numbers, in nM.

CN1CC2C=C(c3cncc(Cl)c3)CC(C2)C1 (configuration not stated)    1830
N#Cc1cncc(C2=C[C@@H]3CNC[C@H](C2)C3)c1    17
C1=C(c2cccnc2)C[C@H]2CNC[C@@H]1C2    4
CN1CC2C=C(c3cncc(Oc4ccccc4)c3)CC(C2)C1 (configuration not stated)    8.2

For every listed record, write down its Ki.
1. Clc1ccncc1C1=CC2CNCC(C1)C2 (configuration not stated)
2. N#Cc1cncc(C2=CC3CNCC(C2)C3)c1 (configuration not stated)
3. CN1CC2C=C(c3ccc(Cl)nc3)CC(C2)C1 (configuration not stated)
4. C1=C(c2cncc(-c3ccccc3)c2)CC2CNCC1C2 (configuration not stated)
5. C1=C(c2cncc(OCc3ccccc3)c2)CC2CNCC1C2 (configuration not stated)
6. C1=C(c2cccnc2)CC2CNCC1C2 (racemic)

1. 128
2. 47
3. 986
4. 17
5. 44
6. 12

Kindly give each listed record's Ki.
1. CN1C[C@@H]2C=C(c3cccnc3)C[C@@H](C2)C1
2. Clc1cncc(C2=CC3CNCC(C2)C3)c1 (configuration not stated)

1: 1800; 2: 40

====

Molecular target: Neuronal acetylcholine receptor; alpha4/beta2 (Homo sapiens, UniProt P17787+P43681)
Test: Displacement of [3H]nicotine from human alpha4beta2 nAChR expressed in human SH-EP1 cells
pKi: −log10 of the molar value.
Tick true (1) if pKi is 9 or greater. Tick false (0) if pKi is less than 9.

The following compounds have reported results that may help.
CN1C[C@@H]2C=C(c3cccnc3)C[C@@H](C2)C1    false (0)
Fc1cncc(C2=C[C@H]3CNC[C@@H](C2)C3)c1    true (1)
Clc1ccc(Oc2cncc(C3=CC4CNCC(C3)C4)c2)cc1 (configuration not stated)    false (0)
C1=C(c2cccnc2)C[C@H]2CNC[C@@H]1C2    true (1)

Could you tell me if the measured pKi of Clc1ccc(C2=CC3CNCC(C2)C3)nn1 (configuration not stated) reaches 9 or more? true (1)

# check: pKi of N#Cc1ccncc1C1=CC2CNCC(C1)C2 (configuration not stated) is greater than or equal to 9 false (0)

Hi team, for C1=C(c2cccnc2)CC2CNCC1C2 (racemic) , is the recorded pKi at or above 9? true (1)

Identify whether the reported pKi of the following compound is 9 or greater: CN1CC2C=C(c3cncc(Cl)c3)CC(C2)C1 (configuration not stated) false (0)

====

Molecular target: Neuronal acetylcholine receptor subunit alpha-7 (Rattus norvegicus, UniProt Q05941)
Sequence (Q05941 whole entry): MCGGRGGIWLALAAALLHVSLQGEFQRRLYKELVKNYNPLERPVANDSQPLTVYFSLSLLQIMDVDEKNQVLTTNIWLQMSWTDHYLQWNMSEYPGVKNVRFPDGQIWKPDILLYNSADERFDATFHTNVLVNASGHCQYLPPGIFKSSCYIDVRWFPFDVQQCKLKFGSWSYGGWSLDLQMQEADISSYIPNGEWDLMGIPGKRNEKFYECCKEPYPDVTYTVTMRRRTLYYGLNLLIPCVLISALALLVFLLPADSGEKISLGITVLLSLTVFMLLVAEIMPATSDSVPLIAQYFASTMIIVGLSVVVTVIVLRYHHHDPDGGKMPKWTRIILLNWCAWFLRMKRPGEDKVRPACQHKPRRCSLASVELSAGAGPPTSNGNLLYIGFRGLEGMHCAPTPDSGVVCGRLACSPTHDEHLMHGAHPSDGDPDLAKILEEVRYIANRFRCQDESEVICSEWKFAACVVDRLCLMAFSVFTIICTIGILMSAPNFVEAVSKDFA
Experiment: Agonist activity at rat alpha7 nAChR expressed in Xenopus laevis oocytes by two-electrode voltage clamp assay
Measured Property: EC50 (µM)
Numbers only, in µM.

State, for Neuronal acetylcholine receptor subunit alpha-7 (Rattus norvegicus, UniProt Q05941), measured EC50 of the compound listed here: c1cnc2cc3c(cc2n1)[C@@H]1CNC[C@H]3C1 [VARENICLINE] 18

====

Field: %max. Provide a value for each of the molecules that follow.
Molecular target: Neuronal acetylcholine receptor; alpha4/beta2 (Homo sapiens, UniProt P17787+P43681)
Test: Agonist activity at human alpha4beta2 nAChR low sensitivity form expressed in human SH-EP1 cells assessed as increase in calcium flux by FLIPR relative to 10 uM nicotine
Format: functional, cell-based
One number for each entry, in %.

Clc1ccc(C2=CC3CNCC(C2)C3)cn1 (stereo unspecified)    152
CN1CC2C=C(c3cncc(Oc4ccccc4)c3)CC(C2)C1 (stereo unspecified)    9.5
Fc1cncc(C2=C[C@@H]3CNC[C@H](C2)C3)c1    120
CN1C[C@@H]2C=C(c3cccnc3)C[C@@H](C2)C1    17
COc1cncc(C2=CC3CNCC(C2)C3)c1 (stereo unspecified)    100

I need %max for every entry listed below, if you could help.
1. Fc1cncc(C2=C[C@H]3CNC[C@@H](C2)C3)c1
2. N#Cc1cncc(C2=C[C@H]3CNC[C@@H](C2)C3)c1
3. Fc1ccc(C2=CC3CNCC(C2)C3)cn1 (stereo unspecified)
4. C1=C(c2cncc(Oc3ccccc3)c2)CC2CNCC1C2 (stereo unspecified)
5. C1=C(c2ccc(-c3ccccc3)nc2)CC2CNCC1C2 (stereo unspecified)
6. COc1cncc(C2=CC3CC(C2)CN(C)C3)c1 (stereo unspecified)

1: 119; 2: 88; 3: 136; 4: 30; 5: 18; 6: 15

====

Please provide measured pEC50 for the entries that follow.
Molecular target: Neuronal acetylcholine receptor; alpha4/beta2 (Homo sapiens, UniProt P17787+P43681)
Experiment: Agonist activity at human alpha4beta2 nAChR expressed in human SH-EP1 cells by whole cell voltage clamp based electrophysiology method
Type: functional
Answers are plain numbers, as −log10 of the molar value.

CN1C[C@@H]2C=C(c3cccnc3)C[C@@H](C2)C1    5.51
CC(C)Oc1cncc(C2=CC3CNCC(C2)C3)c1 (configuration not stated)    5.85
CN1C[C@H]2C=C(c3cccnc3)C[C@H](C2)C1    5.46
C1=C(c2cccnc2)C[C@@H]2CNC[C@H]1C2    7.30
C1=C(c2cncc(Oc3ccccc3)c2)CC2CNCC1C2 (configuration not stated)    6.23

Record pEC50 per entry; entries follow.
1. CC(C)Oc1cncc(C2=CC3CC(C2)CN(C)C3)c1 (configuration not stated)
2. C1=C(c2cccnc2)C[C@H]2CNC[C@@H]1C2

1: 5.46; 2: 7.00
